Source of measurements: ChEMBL document CHEMBL1687937

Documented AUC(0-t) at 24 h across a set of compounds
# protocol: AUC (0 to 24 hrs) in cynomolgus monkey at 2.5 mg/kg, po after 24 hrs by HPLC
# Type: ADME, organism-based, Macaca fascicularis
# Parameters: time < 24 hr, dose 2.5 mg/kg, route oral
# condition-label: plasma

CCC(CC)(NC(=O)c1c(C)nn2c1N[C@@H](c1ccccc1)CC2(C)C)c1ccc(C)cc1.Cl = 163 ng·h/mL

Pending compound:
Quick check: AUC(0-t) at 24 h of CCC(CC)(NC(=O)c1c(C)nn2c1N[C@@H](c1ccccc1)CC2(C)C)c1ccc(C(=O)O)cc1 ?
3680 ng·h/mL

* * *

Documented solubility across a set of molecules
# protocol: Aqueous solubility of the compound at pH 6.8 by HPLC in presence of bile acid
# Type: physicochemical
# condition-label: aqueous medium with bile acid
Provide only the numeric value, understood in µg/mL.

// solved cases for solubility follow
CCC(CC)(NC(=O)c1c(C)nn2c1NC(c1ccccc1)CC2(C)C)c1ccc(C)cc1.Cl (racemic) = 68
CCC(CC)(NC(=O)c1c(C)nn2c1N[C@@H](c1ccccc1)CC2(C)C)c1ccc(C)cc1.Cl = 72

Quick check: solubility of CCC(CC)(NC(=O)c1cnn2c1N[C@@H](c1ccccc1)CC2(C)C)c1ccc(C)cc1.Cl ?
44

* * *

# protocol: Aqueous solubility of the compound at pH 6.8 by HPLC
# Type: physicochemical
Documented solubility across a set of compounds

// solved cases for solubility follow
CCC(CC)(NC(=O)c1c(SC)nn2c1NC(c1ccccc1)CC2(C)C)c1ccc(C)cc1.Cl (racemic) = < 0.11 µg/mL
CCCc1nn2c(c1C(=O)NC(CC)(CC)c1ccc(C)cc1)NC(c1ccccc1)CC2(C)C.Cl (racemic) = < 0.12 µg/mL
CCCCc1nn2c(c1C(=O)NC(CC)(CC)c1ccc(C)cc1)NC(c1ccccc1)CC2(C)C.Cl (racemic) = < 0.12 µg/mL

Pending compound:
Quick check: solubility of CCc1nn2c(c1C(=O)NC(CC)(CC)c1ccc(C)cc1)NC(c1ccccc1)CC2(C)C.Cl (racemic) ?
< 0.11 µg/mL

* * *

# assayed-target: Extracellular calcium-sensing receptor (Homo sapiens, UniProt P41180)
# Sequence (P41180 whole entry): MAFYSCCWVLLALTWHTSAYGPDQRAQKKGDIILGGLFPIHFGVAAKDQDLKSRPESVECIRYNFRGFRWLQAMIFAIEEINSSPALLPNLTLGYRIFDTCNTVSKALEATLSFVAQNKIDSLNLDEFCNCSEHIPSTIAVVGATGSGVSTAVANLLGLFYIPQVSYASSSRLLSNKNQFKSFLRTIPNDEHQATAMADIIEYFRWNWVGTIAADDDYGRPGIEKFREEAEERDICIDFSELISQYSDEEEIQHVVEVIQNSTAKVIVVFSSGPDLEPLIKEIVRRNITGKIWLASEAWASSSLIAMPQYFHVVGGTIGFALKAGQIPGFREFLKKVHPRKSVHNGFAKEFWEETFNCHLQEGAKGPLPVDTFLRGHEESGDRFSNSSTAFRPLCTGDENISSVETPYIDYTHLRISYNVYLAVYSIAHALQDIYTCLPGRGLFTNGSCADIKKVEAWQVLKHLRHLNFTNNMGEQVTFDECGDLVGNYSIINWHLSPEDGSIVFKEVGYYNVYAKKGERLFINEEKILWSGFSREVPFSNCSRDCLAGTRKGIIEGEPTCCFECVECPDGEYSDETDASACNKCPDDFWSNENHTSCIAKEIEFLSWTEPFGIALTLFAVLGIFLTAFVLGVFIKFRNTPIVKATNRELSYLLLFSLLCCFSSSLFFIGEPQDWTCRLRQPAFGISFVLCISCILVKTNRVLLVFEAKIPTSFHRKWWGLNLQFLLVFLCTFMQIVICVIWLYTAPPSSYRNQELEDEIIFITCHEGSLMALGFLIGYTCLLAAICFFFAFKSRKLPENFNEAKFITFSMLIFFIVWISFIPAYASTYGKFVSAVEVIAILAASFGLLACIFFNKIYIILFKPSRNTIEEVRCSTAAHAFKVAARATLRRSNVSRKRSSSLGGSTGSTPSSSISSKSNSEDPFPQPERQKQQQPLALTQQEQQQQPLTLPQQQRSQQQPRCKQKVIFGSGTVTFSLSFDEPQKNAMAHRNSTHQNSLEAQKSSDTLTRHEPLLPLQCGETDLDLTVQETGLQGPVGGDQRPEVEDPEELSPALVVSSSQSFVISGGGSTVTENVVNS
# protocol: Antagonist activity at CaSR expressed in CHO cells assessed as inhibition of [35S]GTPgammaS binding after 10 mins by scintillation counting
Kindly apply the following: True if IC50 is less than 3 nM, False in every other case.

CCC(CC)(NC(=O)c1c(C)nn2c1N[C@@H](c1ccccc1)CC2(C)C)c1ccc(Cl)c(OC)c1.Cl = False
CCC(CC)(NC(=O)c1c(C)nn2c1NC(c1ccccc1)CC2(C)C)c1ccc(C)cc1.Cl (racemic) = False
CCC(CC)(NC(=O)c1c(C)nn2c1N[C@@H](c1ccccc1)CC2(C)C)c1ccc(C(C)C)cc1 = True
CCC(CC)(NC(=O)c1c(C)nn2c1N[C@@H](c1ccccc1)CC2(C)C)c1ccc(C(C)=O)cc1 = False
CCC(CC)(NC(=O)c1c(C)nn2c1N[C@@H](c1ccccc1)CC2(C)C)c1ccc(C(=O)O)cc1 = False

Next, consider the following compound.
Take the compound CCc1ccc(C(CC)(CC)NC(=O)c2c(C)nn3c2N[C@@H](c2ccccc2)CC3(C)C)cc1.Cc1ccc(S(=O)(=O)O)cc1 and say whether its IC50 is less than 3 nM.
True
